MEASURED_TARGET: TEAD1 TAZ (amino acids 13-57) (Homo sapiens)
Sequence (P28347 167-426 limits assumed): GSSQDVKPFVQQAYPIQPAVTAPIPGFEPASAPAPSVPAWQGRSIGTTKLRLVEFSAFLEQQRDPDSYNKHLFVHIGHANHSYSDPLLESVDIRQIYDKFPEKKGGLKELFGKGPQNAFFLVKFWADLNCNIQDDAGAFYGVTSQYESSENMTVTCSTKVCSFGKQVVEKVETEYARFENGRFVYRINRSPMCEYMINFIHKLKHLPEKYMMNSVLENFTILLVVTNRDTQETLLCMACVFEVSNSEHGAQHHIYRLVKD
ASSAY_EXPLANATION: TEAD1-TAZ HTRF (TR-FRET) protein-protein interaction assay
EXPERIMENTAL_PARAMETERS: TEAD1-TAZ HTRF, TR-FRET 665 nm/615 nm; read-out: TEAD1 TAZ HTRF combined: EC50
MEASURE_NAME: EC50 (nM)

• O=C(c1c(-c2nccc(C(F)(F)F)n2)nn2c(=O)cc(-c3ccc(C4CCCCC4)cc3)[nH]c12)N1CC(CF)C1 = 70
• O=C(c1c(-c2ccccc2)nn2c(=O)cc(-c3ccc(C4CCCCC4)cc3)[nH]c12)N1CC(CF)C1 = 220
• O=C(c1c(C2CNCCO2)nn2c(=O)cc(-c3ccc(C4CCCCC4)cc3)[nH]c12)N1CC(CF)C1 (single isomer, unassigned) [Enantiomer A, Example 63] = 130
• COc1nccnc1-c1nn2c(=O)cc(-c3ccc(C4CCCCC4)cc3)[nH]c2c1C(=O)N1CC(CF)C1 = 100

1 = O=C(c1c(-c2cccnc2)nn2c(=O)cc(-c3ccc(C4CCCCC4)cc3)[nH]c12)N1CC(CF)C1
2 = Cc1nccnc1-c1nn2c(=O)cc(-c3ccc(C4CCCCC4)cc3)[nH]c2c1C(=O)N1C[C@H](CF)[C@@H]1C (single isomer, unassigned) [Isomer B, Example 41]
3 = CC(CO)c1nn2c(=O)cc(-c3ccc(C4CCCCC4)cc3)[nH]c2c1C(=O)N1CC[C@@H](C#N)C1 (single isomer, unassigned) [Final product obtained using Enantiomer A from Step 4, Example 54]
Problem: Put the entries in order of EC50, starting with the largest number. Could you list the labels in the order requested?
Solution: 3, 1, 2
